TARGET_SYSTEM: VEGFR2, unphosphorylated (Homo sapiens (Human), UniProt P35968)
Sequence (P35968 whole entry, looked up): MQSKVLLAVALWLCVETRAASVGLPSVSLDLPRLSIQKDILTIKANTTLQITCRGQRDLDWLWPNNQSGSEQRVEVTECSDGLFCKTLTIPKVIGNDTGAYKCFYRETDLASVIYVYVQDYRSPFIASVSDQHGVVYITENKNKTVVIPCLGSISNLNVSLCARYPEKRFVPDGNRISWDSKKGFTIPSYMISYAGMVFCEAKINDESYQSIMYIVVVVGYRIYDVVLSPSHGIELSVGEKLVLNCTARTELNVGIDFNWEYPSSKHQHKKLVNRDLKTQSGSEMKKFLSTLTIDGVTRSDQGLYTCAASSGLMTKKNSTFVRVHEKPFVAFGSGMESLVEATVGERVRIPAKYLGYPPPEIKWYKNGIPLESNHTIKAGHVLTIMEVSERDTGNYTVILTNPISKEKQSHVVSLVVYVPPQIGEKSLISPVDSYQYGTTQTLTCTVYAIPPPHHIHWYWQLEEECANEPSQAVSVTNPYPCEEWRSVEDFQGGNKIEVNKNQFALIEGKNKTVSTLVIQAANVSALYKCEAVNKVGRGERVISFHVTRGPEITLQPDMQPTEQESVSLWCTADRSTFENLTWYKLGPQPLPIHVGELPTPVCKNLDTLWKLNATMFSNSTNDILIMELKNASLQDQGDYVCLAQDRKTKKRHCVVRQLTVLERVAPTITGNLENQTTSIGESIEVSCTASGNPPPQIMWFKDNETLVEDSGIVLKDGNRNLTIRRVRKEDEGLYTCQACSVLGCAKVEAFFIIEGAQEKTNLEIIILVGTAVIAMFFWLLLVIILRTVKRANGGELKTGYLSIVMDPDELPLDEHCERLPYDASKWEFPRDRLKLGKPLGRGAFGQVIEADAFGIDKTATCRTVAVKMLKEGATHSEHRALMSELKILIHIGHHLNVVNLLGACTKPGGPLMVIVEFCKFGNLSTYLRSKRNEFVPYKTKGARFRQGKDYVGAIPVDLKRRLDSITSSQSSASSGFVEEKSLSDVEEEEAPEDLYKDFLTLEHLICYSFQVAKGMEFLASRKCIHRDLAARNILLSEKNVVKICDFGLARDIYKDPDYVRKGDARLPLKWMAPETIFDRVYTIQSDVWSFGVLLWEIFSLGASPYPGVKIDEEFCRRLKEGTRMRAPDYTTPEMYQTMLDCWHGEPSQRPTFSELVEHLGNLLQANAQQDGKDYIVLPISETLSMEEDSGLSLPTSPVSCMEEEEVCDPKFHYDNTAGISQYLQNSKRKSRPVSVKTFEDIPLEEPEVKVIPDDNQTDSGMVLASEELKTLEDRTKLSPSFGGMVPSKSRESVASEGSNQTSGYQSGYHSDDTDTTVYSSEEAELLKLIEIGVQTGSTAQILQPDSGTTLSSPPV
ASSAY_METHOD_TEXT: VEGFR ADP GLO assay
MEASUREMENT_CONTEXT: 5 nM VEGFR2, 1.2 mM ATP, 1 mg/mL Srctide, 180 min
pIC50: −log10 of the molar value.
PROPERTY_LABEL: pIC50

// query Provide measured pIC50 on VEGFR2, unphosphorylated (Homo sapiens (Human), UniProt P35968) for Cc1ncc(C(=O)NCCN2CCC[C@@H]2C)cc1Nc1nn(C)c2nc(Nc3cncnc3)ncc12 please.
// result < 5.12

// query Give measured pIC50 for Cc1ncc(C(=O)NCCN2CCC3(CCO3)CC2)cc1Nc1nn(C)c2nc(Nc3cnn(C)c3)ncc12 (VEGFR2, unphosphorylated (Homo sapiens (Human), UniProt P35968)).
// result < 5.12

// query Write pIC50 of Cc1ncc(C(=O)NCCC2CCCCC2)cc1Nc1nn(C)c2nc(Nc3ccc(CC(=O)O)nc3)ncc12 ; system used: VEGFR2, unphosphorylated (Homo sapiens (Human), UniProt P35968)
// result 6.04

// query Tell me pIC50 of Cc1cc(C(=O)NCCN2CCCOCC2)sc1Nc1nn(C)c2nc(Nc3cnn(C)c3)ncc12 when tested on VEGFR2, unphosphorylated (Homo sapiens (Human), UniProt P35968).
// result < 5.12

// query State the measured pIC50 (VEGFR2, unphosphorylated (Homo sapiens (Human), UniProt P35968)) of COCCn1cc(Nc2ncc3c(Nc4cc(NC(=O)CN5CCC56CCC6)cnc4C)nn(C)c3n2)cn1
// result < 5.12

// query Enter pIC50 (test system VEGFR2, unphosphorylated (Homo sapiens (Human), UniProt P35968)) for COCCn1cc(Nc2ncc3c(Nc4cc(NC(=O)CN5CC6CCC5CC6)cnc4C)nn(C)c3n2)cn1
// result 5.19

// query Report measured pIC50 on VEGFR2, unphosphorylated (Homo sapiens (Human), UniProt P35968); entry: Cc1ncc(C(=O)NCCN2CCC(C)(C)C2)cc1Nc1nn(C)c2nc(Nc3cncnc3)ncc12
// result < 5.12

// query Under VEGFR2, unphosphorylated (Homo sapiens (Human), UniProt P35968), report pIC50 for Cc1ncc(C(=O)NCCN2C[C@H](C)O[C@@H](C)C2)cc1Nc1nn(C)c2nc(Nc3cncnc3)ncc12
// result < 5.12

// query Provide pIC50, system VEGFR2, unphosphorylated (Homo sapiens (Human), UniProt P35968), entry Cc1ncc(C(=O)NCCN2CC[C@@H](C)C2)cc1Nc1nn(C)c2nc(Nc3cncnc3)ncc12
// result < 5.12

// query # assay system VEGFR2, unphosphorylated (Homo sapiens (Human), UniProt P35968): give pIC50 of Cc1ncc(C(=O)NCCN2CC[C@H](C)C2)cc1Nc1nn(C)c2nc(Nc3cncnc3)ncc12
// result < 5.12

// query Name the value of pIC50 reported for Cc1ncc(C(=O)NCCN2CCCC[C@@H]2C)cc1Nc1nn(C)c2nc(Nc3cncnc3)ncc12 when tested on VEGFR2, unphosphorylated (Homo sapiens (Human), UniProt P35968).
// result 5.68

// query Print VEGFR2, unphosphorylated (Homo sapiens (Human), UniProt P35968) pIC50 for Cc1ncc(C(=O)NCCN2CCCC2(C)C)cc1Nc1nn(C)c2nc(Nc3cccc(C(C)(C)C(=O)O)c3)ncc12 .
// result 5.62

// query Tell me its pIC50 on VEGFR2, unphosphorylated (Homo sapiens (Human), UniProt P35968): Cc1ncc(C(=O)NCCN2CC3CCC2CC3)cc1Nc1nn(C)c2nc(Nc3cncnc3)ncc12
// result < 5.12

// query Provide the reported pIC50 (system: VEGFR2, unphosphorylated (Homo sapiens (Human), UniProt P35968)) for COCCN(CCNC(=O)c1cnc(C)c(Nc2nn(C)c3nc(Nc4cnn(C)c4)ncc23)c1)C1CCC1
// result < 5.12

// query State pIC50 (VEGFR2, unphosphorylated (Homo sapiens (Human), UniProt P35968)) of Cc1ncc(C(=O)NCCN2C[C@@H](C)O[C@@H](C)C2)cc1Nc1nn(C)c2nc(Nc3cnn(C)c3)ncc12 .
// result < 5.12
